Structures can show the parent of a compound that is named as a salt.
The listing below reports pIC50 for molecules tested on human ATX (Homo sapiens (Human)).
pIC50 here is simply -log10 of the concentration when that concentration is written in mol/L.

Some entries whose results are on file:
O=C(CO)N1CCN(C(=O)Cn2cc(-c3cnc(NC4Cc5ccccc5C4)nc3)c(-c3ccncc3)n2)CC1 [Compound 115] : 7.18
O=C(Cn1cc(-c2cnc(NC3Cc4ccccc4C3)nc2)c(NC2CCC2)n1)N1CCc2[nH]nnc2C1 [Compound 100] : 8.44

Pending molecule:
Log: human ATX (Homo sapiens (Human)), molecule NNC(=O)C1=CCN(C(=O)Cc2nnc(-c3cnc(NC4Cc5ccccc5C4)nc3)o2)CC1 [Compound 120, Hydrochloride] , pIC50 = 6.42
